- Measured on: Bromodomain-containing protein 4 (Homo sapiens, UniProt O60885, Y390A)
- Protocol description: Binding affinity to 6His-tagged-BRD4 BD1 Y390A mutant (1 to 477 aa) (unknown origin) by TR-FRET competitive assay
Measured IC50, listed per entry for reference.

Examples from the recorded data:
| Sample smiles | IC50 |
| --- | --- |
| Cc1ccc(S(=O)(=O)Nc2ccc3c(c2)n(C)c(=O)n3C)c(C)c1 | 2.51 µM |
| COc1ccccc1C(=O)Nc1ccc2c(c1)n(C)c(=O)n2C | > 50.1 µM |
| Cn1c(=O)n(C)c2cc(C(N)=O)ccc21 | 79.4 µM |
| COc1cccc(C(=O)Nc2ccc3c(c2)n(C)c(=O)n3C)c1 | 15.8 µM |

Now for another entry.
*Q* Could you tell me which IC50 is on file for COc1cccc(C(=O)Nc2cc3c(cc2C)n(C)c(=O)n3C)c1 ?
*A* > 50.1 µM
